- Tested on: SK-MEL-5 melanoma
- MEASUREMENT_PROTOCOL: NCI tumour cell line growth inhibition, 48 h
TGI by entry:

{"COMPOUND": "Cc1cccc(-c2nnc3s/c(=C\\c4ccc(N(C)C)cc4)c(=O)n23)c1", "TGI": "> 100 µM"}
{"COMPOUND": "Cc1c(Cn2c(C)nc3c(C(=O)O)cc(N4CCOCC4)cc32)cccc1C(F)(F)F", "TGI": "> 100 µM"}
{"COMPOUND": "CCOC(=O)C(NC(=O)c1cccc(Cl)c1)(Nc1ccc(S(=O)(=O)Nc2cc(C)on2)cc1)C(F)(F)F (stereo not drawn)", "TGI": "> 100 µM"}

* * *

- System: SF-268 CNS
- MEASUREMENT_PROTOCOL: NCI tumour cell line growth inhibition, 48 h
TGI by entry:
READOUT_NAME: TGI

{"MOLECULE": "NCCCCC(NC(=O)C(N)CCCN=C(N)N)C(=O)NC(CCCCN)C(=O)NC(CCCN=C(N)N)C(=O)NC(CCCN=C(N)N)C(=O)NC(CCC(N)=O)C(=O)NC(CCCN=C(N)N)C(=O)NC(CCCN=C(N)N)C(=O)NC(CCCN=C(N)N)C(=O)NCC(=O)NCC(=O)O (stereo not drawn)", "OBS_VALUE": "> 50 µM"}
{"MOLECULE": "Cc1nc(OCc2ccccc2)c2ncn(CCO)c2n1", "OBS_VALUE": "> 100 µM"}
{"MOLECULE": "COc1ccc2c(c1)c1c3c(ccc4ncn2c43)N(CCO)CCN=1", "OBS_VALUE": "1.86 µM"}
{"MOLECULE": "O=S(=O)(N=C1C(Cl)=C(Cl)C(=NS(=O)(=O)c2ccccc2)C(Cl)=C1Cl)c1ccccc1", "OBS_VALUE": "42.2 µM"}
{"MOLECULE": "O=C(C[n+]1ccccc1)N/N=C(/CCC(=O)N(Cc1ccccc1)Cc1ccccc1)CC(=O)c1ccccc1", "OBS_VALUE": "> 100 µM"}
{"MOLECULE": "CN(C)c1ccc(/C=c2\\sc3nnc(-c4ccco4)n3c2=O)cc1", "OBS_VALUE": "> 100 µM"}
{"MOLECULE": "Cc1nc2c(c(N3CCN(C)CC3)n1)Cc1ccccc1-2", "OBS_VALUE": "> 100 µM"}
{"MOLECULE": "COc1ccc(-c2ncnc3c2ncn3CC#CCCl)cc1", "OBS_VALUE": "4.13 µM"}

* * *

TGI by entry:
- Test system: A549 NSCLC
- MEASUREMENT_PROTOCOL: NCI tumour cell line growth inhibition, 48 h
READOUT_NAME: TGI (µM)

{"INPUT_SMILES": "Cc1c(NC(=S)Nc2ccc([N+](=O)[O-])cc2)c(=O)n(-c2ccccc2)n1C", "STUDY_SYSTEM": "A549 NSCLC", "READING_QUALIFIER": ">", "OBS_VALUE": 100}
{"INPUT_SMILES": "CC(C)(C)c1cc(/C=C(\\C#N)C2=NCCO2)cc(C(C)(C)C)c1O", "STUDY_SYSTEM": "A549 NSCLC", "READING_QUALIFIER": "=", "OBS_VALUE": 19.7}
{"INPUT_SMILES": "COc1ccc(Nc2nc(NCCNc3ccnc4cc(Cl)ccc34)nc(N3CCOCC3)n2)cc1", "STUDY_SYSTEM": "A549 NSCLC", "READING_QUALIFIER": "=", "OBS_VALUE": 20.3}
